The compounds listed here are annotated with their TGI.
Test system: LOX IMVI melanoma
test.protocol: NCI tumour cell line growth inhibition, 48 h

>  <compound>
CCOC(=O)c1cnc2c(cnn2CC)c1NN=C(C)C

>  <TGI>
> 100 µM

$$$$
>  <compound>
O=C1/C(=C2\SCC(=O)N2c2ccccc2)SC(=S)N1c1ccccc1

>  <TGI>
> 100 µM

$$$$
>  <compound>
COc1ccc(S(=O)(=O)N/N=C(\C)CN2C(=O)c3ccccc3C2=O)cc1

>  <TGI>
> 100 µM

$$$$
>  <compound>
c1ccc(-c2nc3ccccc3n3nnnc23)cc1

>  <TGI>
> 100 µM

$$$$
>  <compound>
CC(C)(C)C(=O)OCC(COC(=O)C(C)(C)C)[N+](=O)[O-]

>  <TGI>
> 100 µM

$$$$
>  <compound>
Cc1ccc(C2(c3ccc(C)c(O)c3C)CCN(C)CC2)c(C)c1O

>  <TGI>
> 100 µM

$$$$
>  <compound>
c1ccc2c(c1)ccc1c3ccccc3ccc21

>  <TGI>
> 50 µM

$$$$
>  <compound>
COc1cc(C2C3=C(N=C4SC(C(C)=O)=C(C)N42)c2ccccc2CC3)cc(OC)c1OC (centres undefined)

>  <TGI>
> 100 µM

$$$$
>  <compound>
O=[N+]([O-])c1ccc2c(c1)S(=O)c1ccccc1-2 (centres undefined)

>  <TGI>
> 100 µM

$$$$

Data origin, for the record: PubChem BioAssay (NCI)
